VALUE_TYPE: GI50 (nM)
// return numeric value only (unit: nM, not printed)

State recorded GI50 with PC-3 cells (human prostate cancer cells), entry COc1ccc(CSc2nc(-n3ccnc3)c3ncn(C)c3n2)cc1 [Compound 110] , no comment.
1400

State recorded GI50 with PC-3 cells (human prostate cancer cells), entry COc1ccc(CSc2nc(-c3cn[nH]c3)c3ncn(C)c3n2)cc1 [Compound 170] , no comment.
50

State recorded GI50 with PC-3 cells (human prostate cancer cells), entry COc1ccc(CSc2nc(N3CCOCC3)c3ncn(C)c3n2)cc1N [Compound 18] , no comment.
690

State recorded GI50 with PC-3 cells (human prostate cancer cells), entry COc1ccc(CSc2nc(N3CC=CC3)c3ncn(C)c3n2)cc1 [Compound 130] , no comment.
540

###

Please provide measured GI50 for the entries that follow.
Structures can show the parent of a compound that is named as a salt.
// return numeric value only (unit: nM, not printed)

State recorded GI50 with B16F10 cells (mouse melanoma [malignant melanoma] cells), entry CCc1nc2c(N3CCOCC3)nc(SCc3ccc(OC)c(NC(=O)CN)c3)nc2n1C [Compound 28, hydrochloride] , no comment.
1140

State recorded GI50 with B16F10 cells (mouse melanoma [malignant melanoma] cells), entry C=Cc1nc(SCc2ccc(OC)cc2)nc2c1ncn2C , no comment.
980

State recorded GI50 with B16F10 cells (mouse melanoma [malignant melanoma] cells), entry COc1ccc(CSc2nc(-n3ccnc3)c3ncn(C)c3n2)cc1 , no comment.
1430

State recorded GI50 with B16F10 cells (mouse melanoma [malignant melanoma] cells), entry CCc1nc2c(N3CCOCC3)nc(SCc3ccc(OC)c(N)c3)nc2n1CC , no comment.
290

State recorded GI50 with B16F10 cells (mouse melanoma [malignant melanoma] cells), entry CCc1nc2c(N3CCOCC3)nc(SCc3ccc(OC)c(NC(=O)c4ccco4)c3)nc2n1C , no comment.
1390

State recorded GI50 with B16F10 cells (mouse melanoma [malignant melanoma] cells), entry CCc1nc2c(N3CCOCC3)nc(SCc3ccc(C)c(F)c3)nc2n1C , no comment.
1490

State recorded GI50 with B16F10 cells (mouse melanoma [malignant melanoma] cells), entry COc1ccc(CSc2nc(N(C)C)c3ncn(C)c3n2)cc1C#N , no comment.
80

State recorded GI50 with B16F10 cells (mouse melanoma [malignant melanoma] cells), entry CCc1nc2c(N3CCOCC3)nc(SCc3ccc(OC)c(Br)c3)nc2n1C , no comment.
1200

State recorded GI50 with B16F10 cells (mouse melanoma [malignant melanoma] cells), entry CCc1nc2c(N(C)C)nc(SCc3ccc(OC)c(F)c3)nc2n1C , no comment.
110

State recorded GI50 with B16F10 cells (mouse melanoma [malignant melanoma] cells), entry CCc1nc2c(N(C)C)nc(SCc3ccc(OC)c(N)c3)nc2n1C , no comment.
500

State recorded GI50 with B16F10 cells (mouse melanoma [malignant melanoma] cells), entry CCc1nc2c(N3CCOCC3)nc(SCc3ccc(OC)c(F)c3)nc2n1CC , no comment.
370

State recorded GI50 with B16F10 cells (mouse melanoma [malignant melanoma] cells), entry COc1ccc(CSc2nc(N(C)OC)c3ncn(C)c3n2)cc1F , no comment.
100

State recorded GI50 with B16F10 cells (mouse melanoma [malignant melanoma] cells), entry COc1ccc(CSc2nc(N3CC=CC3)c3ncn(C)c3n2)cc1 , no comment.
630

State recorded GI50 with B16F10 cells (mouse melanoma [malignant melanoma] cells), entry CCn1cnc2c(N3C=COCC3)nc(SCc3ccc(OC)c(F)c3)nc21 , no comment.
370

State recorded GI50 with B16F10 cells (mouse melanoma [malignant melanoma] cells), entry CCc1ccc(CSc2nc(N3CCOCC3)c3nc(CC)n(C)c3n2)cc1N , no comment.
1100

State recorded GI50 with B16F10 cells (mouse melanoma [malignant melanoma] cells), entry CCc1nc2c(N(C)C)nc(SCc3ccc(OC)c(C#N)c3)nc2n1C , no comment.
200

State recorded GI50 with B16F10 cells (mouse melanoma [malignant melanoma] cells), entry COc1ccc(CSc2nc(N3C=COCC3)c3ncn(C)c3n2)cc1 , no comment.
80

State recorded GI50 with B16F10 cells (mouse melanoma [malignant melanoma] cells), entry COc1ccc(CSc2nc(N(C)OC)c3ncn(C)c3n2)cc1 , no comment.
410

State recorded GI50 with B16F10 cells (mouse melanoma [malignant melanoma] cells), entry COc1ccc(CSc2nc(N3CCOCC3)c3ncn(C)c3n2)cc1N , no comment.
1090
